Experimental system: GST-NAP(1-166) (Arabidopsis thaliana, UniProt O49255 1-166)
Sequence: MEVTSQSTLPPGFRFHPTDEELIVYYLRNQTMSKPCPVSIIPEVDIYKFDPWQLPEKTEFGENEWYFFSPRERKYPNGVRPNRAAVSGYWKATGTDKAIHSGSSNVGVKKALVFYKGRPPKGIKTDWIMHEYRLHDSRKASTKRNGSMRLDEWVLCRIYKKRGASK
Experiment summary: universal protein binding microarray (PBM); high values mean tight binding
Condition details: protein: recombinant; tags: GST; chain copies: 2; dsDNA, one strand shown
Each record here notes measured binding signal.
Provide only the numeric value, understood in E-score.

CTTTACGC :: 0.081
CTAACGTA :: 0.173
AATGCGTA :: 0.183
AATAGCGT :: 0.121

Recorded binding signal (sequence `GAGACGTA` ): 0.396

###

Experimental system: GST-NST2(1-184) (Arabidopsis thaliana, UniProt Q9M274 1-184)
Sequence: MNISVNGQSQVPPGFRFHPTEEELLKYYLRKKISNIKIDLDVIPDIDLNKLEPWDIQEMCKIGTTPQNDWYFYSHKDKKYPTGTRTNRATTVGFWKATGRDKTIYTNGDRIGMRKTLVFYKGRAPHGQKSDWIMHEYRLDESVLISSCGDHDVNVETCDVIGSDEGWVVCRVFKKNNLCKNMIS
Experiment summary: universal protein binding microarray (PBM); high values mean tight binding
Condition details: protein: recombinant; tags: GST; chain copies: 2; dsDNA, one strand shown
Metric name: binding signal (E-score)
Provide only the numeric value, understood in E-score.

Below, each entry is followed by its recorded binding signal result.
ACACGCCA :: 0.313
ACACGGAA :: 0.328

Recorded binding signal (sequence `AAGTCATC` ): 0.089

Recorded binding signal (sequence `CACGAAAG` ): 0.189

Recorded binding signal (sequence `AGTCAATC` ): 0.0674

###

Each record here notes measured binding signal.
Experimental system: GST-SND1(1-203) (Arabidopsis thaliana, UniProt Q9LPI7 1-203)
Sequence: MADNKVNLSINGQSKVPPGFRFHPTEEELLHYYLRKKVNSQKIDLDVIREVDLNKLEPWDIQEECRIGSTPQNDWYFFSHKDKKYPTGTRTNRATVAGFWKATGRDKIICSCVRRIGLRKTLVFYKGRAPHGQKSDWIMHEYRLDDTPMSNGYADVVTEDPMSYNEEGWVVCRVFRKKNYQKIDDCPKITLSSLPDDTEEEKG
Experiment summary: universal protein binding microarray (PBM); transcription factors of Arabidopsis thaliana; high values mean tight binding
Condition details: protein: recombinant; tags: GST; chain copies: 2; dsDNA, one strand shown
Provide only the numeric value, understood in E-score.

Below, each entry is followed by its recorded binding signal result.
ACGGAAAC :: 0.191
CGTCAACG :: 0.0973
CACGCTTC :: 0.232
CACGGAAC :: 0.0702
GTTGACTA :: 0.062

Recorded binding signal (sequence `CACGTTTC` ): 0.299

Recorded binding signal (sequence `ACTGACCT` ): 0.0503

Recorded binding signal (sequence `GCACGCTA` ): 0.409

Recorded binding signal (sequence `GGAAGTAA` ): 0.259

Recorded binding signal (sequence `CACACGCA` ): 0.327

Recorded binding signal (sequence `CACGTAAC` ): 0.321

Recorded binding signal (sequence `GGGGTCAA` ): 0.0652

Recorded binding signal (sequence `CAAAGTCA` ): 0.0515

Recorded binding signal (sequence `CGACACGC` ): 0.134

Recorded binding signal (sequence `ACGCTTCC` ): 0.296

Recorded binding signal (sequence `CGAGGAAA` ): 0.17

Recorded binding signal (sequence `ACGGCACG` ): 0.0651

Recorded binding signal (sequence `TAGAGTAA` ): 0.401

Recorded binding signal (sequence `CCCCACCC` ): 0.272

Recorded binding signal (sequence `CCGTCAAA` ): 0.148

Recorded binding signal (sequence `GTAACTTA` ): 0.43

Recorded binding signal (sequence `TCACGGCA` ): 0.16

Recorded binding signal (sequence `CTTACTTA` ): 0.317

Recorded binding signal (sequence `ATTTCCCC` ): 0.199

Recorded binding signal (sequence `AACGTACG` ): 0.326

Recorded binding signal (sequence `CAAGTTAC` ): 0.323

Recorded binding signal (sequence `GCGTGCAC` ): 0.198

Recorded binding signal (sequence `GTACGTTA` ): 0.415

Recorded binding signal (sequence `GTAAGAAA` ): 0.303
